Data origin, for the record: PubChem BioAssay (NCI)

Listed here: items and their measured TGI.
System: HCC-2998 colon
assay.details: NCI tumour cell line growth inhibition, 48 h

{"molecule": "CCCc1nc(N)nc(C(=O)Nc2cccc(C(F)(F)F)c2)c1CC", "TGI": "> 100 µM"}
{"molecule": "CCN1C(=O)C(=C/C=C/c2ccc(OC)cc2)C(=O)N(CC)C1=S", "TGI": "> 100 µM"}
{"molecule": "CCOC(=O)Cc1csc(NC(=O)COC(=O)c2ccc(N)cc2)n1", "TGI": "> 100 µM"}
{"molecule": "O=C1NC(=O)/C(=C/c2c(Cl)nc3sccn23)S1", "TGI": "> 100 µM"}
{"molecule": "CNC(=O)C(CCc1ccccc1)NC(=O)C(CC(=O)NO)CC(C)C (stereo not given)", "TGI": "> 25 µM"}
{"molecule": "O=C(CCC(C(=O)OCc1ccccc1)C(=O)OCc1ccccc1)Nc1ccc(OCc2ccccc2)cc1", "TGI": "> 100 µM"}
{"molecule": "CCOC(=O)c1csc(CCCCCCc2nc(C(=O)OCC)cs2)n1", "TGI": "> 100 µM"}
{"molecule": "CC(C)=CC(=O)c1[nH]c2ccccc2c1CC(=O)NCCc1cn(C(c2ccccc2)(c2ccccc2)c2ccccc2)cn1", "TGI": "3.78 µM"}
{"molecule": "C=CCn1c(SCC(=O)Nc2ccc(C(=O)/C=C/c3cc(OC)c(OC)c(OC)c3)cc2)nnc1-c1ccc(Cl)cc1", "TGI": "5.67 µM"}
{"molecule": "COC1CCN(N(C)C)O1 (stereo not given)", "TGI": "> 100 µM"}

* * *

Listed here: items and their measured TGI.
Test system: UO-31 renal
assay.details: NCI tumour cell line growth inhibition, 48 h
measurement.type: TGI

{"compound": "CCOP(=S)(OCC)Oc1ccc2c(c1)OC(=O)C1(Cl)C2(C)C2(Cl)C(=O)Oc3cc(OP(=S)(OCC)OCC)ccc3C12C (stereo not given)", "measured": "33.7 µM"}
{"compound": "COc1ccc(-c2csc(-n3c(-c4ccccc4)nc4c(Br)cc(Br)cc4c3=O)n2)cc1", "measured": "68.2 µM"}
{"compound": "CC(C)=CC(O)C(C(O)CCC1(C)OCCO1)S(=O)(=O)c1ccccc1 (stereo not given)", "measured": "> 100 µM"}
{"compound": "O=C(NC(=S)Nc1ccccn1)c1ccccc1", "measured": "> 100 µM"}
{"compound": "N#Cc1c2c(c(Cl)n3c1nc1ccccc13)CCCC2", "measured": "12.8 µM"}
{"compound": "CCN1C(=O)N(C)C(O)c2c1nc1ccccn1c2=O (stereo not given)", "measured": "> 100 µM"}
{"compound": "O=c1c2c([nH]c3ccccc13)CCCC2", "measured": "> 100 µM"}
{"compound": "CCOC(=O)C1C(c2ccccc2)=C(c2ccccc2)C(c2ccccc2)=C1c1ccccc1", "measured": "> 93.7 µM"}
{"compound": "COc1ccc(C23OCC(Cc4cc(OC)c(OC)cc42)C3COC(C)=O)cc1OC (stereo not given)", "measured": "> 100 µM"}
{"compound": "CC(CCOc1c2ccoc2cc2oc(=O)ccc12)C1=CC(=O)C(C)(C)O1 (stereo not given)", "measured": "> 100 µM"}

* * *

Test system: HS 578T breast
assay.details: NCI tumour cell line growth inhibition, 48 h

{"molecule": "CC(C)=CC(=O)c1[nH]c2ccccc2c1CC(=O)NCCc1cn(C(c2ccccc2)(c2ccccc2)c2ccccc2)cn1", "assayed.target": "HS 578T breast", "TGI": "> 56.5 µM"}
{"molecule": "COc1ccc2c3c1O[C@H]1[C@@H](O)CC[C@@]4(O)[C@@H](C2)N(C)CC[C@]314", "assayed.target": "HS 578T breast", "TGI": "> 100 µM"}
{"molecule": "O=c1c2c([nH]c3ccccc13)CCCC2", "assayed.target": "HS 578T breast", "TGI": "> 100 µM"}
{"molecule": "C/C(=N\\NC(=S)Nc1ccccc1)c1nc2ncccc2[nH]1", "assayed.target": "HS 578T breast", "TGI": "77.7 µM"}
{"molecule": "Cc1nn(C(=O)c2ccccc2O)c2c1C(c1ccccc1O)SC(N)=N2 (stereo not given)", "assayed.target": "HS 578T breast", "TGI": "> 10 µM"}

* * *

Tested on: NCI-H460 lung
assay.details: NCI tumour cell line growth inhibition, 48 h
measurement.type: TGI

{"compound": "CCN(CC)CCCC(CO)Nc1ccnc2cc(Cl)ccc12 (stereo unspecified)", "assayed.target": "NCI-H460 lung", "measured": "> 100 µM"}
{"compound": "COc1ncc(-c2ccc3nccc(C#CCCCCC(=O)O)c3c2)cc1NS(=O)(=O)c1ccc(F)cc1F", "assayed.target": "NCI-H460 lung", "measured": "> 100 µM"}
{"compound": "CCOC(=O)C1(Cc2ccc3c(c2)CCC3)Cc2cc3c(cc2C1=O)CCC3 (stereo unspecified)", "assayed.target": "NCI-H460 lung", "measured": "> 100 µM"}
{"compound": "N#Cc1c2c(c(Cl)n3c1nc1ccccc13)CCCC2", "assayed.target": "NCI-H460 lung", "measured": "4.02 µM"}
{"compound": "COc1cc(/C=C/C(=O)Oc2ccc(NC(C)=O)cc2)ccc1C(=O)OCc1ccccc1", "assayed.target": "NCI-H460 lung", "measured": "> 100 µM"}
{"compound": "C=C1C(=O)O[C@@H]2O[C@@]3(C)CC[C@H]4[C@H](C)CC[C@@H]1[C@@]24O3", "assayed.target": "NCI-H460 lung", "measured": "65.9 µM"}
{"compound": "O=C1c2ccccc2-c2nc(-c3ccncc3)cc3c2c1nc1ccccc13", "assayed.target": "NCI-H460 lung", "measured": "90.9 µM"}
{"compound": "COC(=O)CCC1=NOC(CC2CC(CCC(=O)OC)=NO2)C1 (stereo unspecified)", "assayed.target": "NCI-H460 lung", "measured": "> 100 µM"}
{"compound": "CC1(F)C=CC(=O)C=C1", "assayed.target": "NCI-H460 lung", "measured": "> 100 µM"}
{"compound": "CCCOP1(=O)C=C(O)C(Cl)=C(C)C1 (stereo unspecified)", "assayed.target": "NCI-H460 lung", "measured": "> 100 µM"}
{"compound": "Cc1nc2c(n1CC(C)C)C(=O)c1ccccc1C2=O", "assayed.target": "NCI-H460 lung", "measured": "54.2 µM"}
{"compound": "CCCCCOc1ccc(C=Nc2ccc(-c3ccc(N=Cc4ccc(OCCCCC)cc4)c(OC)c3)cc2OC)cc1", "assayed.target": "NCI-H460 lung", "measured": "> 100 µM"}
{"compound": "O=Cc1c(O)ccc2ccc(O)c(-c3c(O)ccc4ccc(O)cc34)c12", "assayed.target": "NCI-H460 lung", "measured": "> 100 µM"}
{"compound": "CCCCC1CC(c2ccc(Cl)cc2)=NO1 (stereo unspecified)", "assayed.target": "NCI-H460 lung", "measured": "> 100 µM"}
{"compound": "C[CH2][Sn]([CH2]C)([O]C(=O)c1cccc(OC)c1)[O][Sn]([CH2]C)([CH2]C)[O]C(=O)c1cccc(OC)c1", "assayed.target": "NCI-H460 lung", "measured": "> 100 µM"}
{"compound": "O=C1C=CC(=O)c2c(O)c(N3CCN(c4ccccn4)CC3)c(Cl)c(O)c21", "assayed.target": "NCI-H460 lung", "measured": "8.53 µM"}
{"compound": "Nc1c(Br)cc2c(c1Br)Cc1cc(Br)ccc1-2", "assayed.target": "NCI-H460 lung", "measured": "> 100 µM"}
{"compound": "COc1ccc2c(c1)[C@@H]1c3cc(OC)c(OC)cc3CCN1CCC2", "assayed.target": "NCI-H460 lung", "measured": "> 100 µM"}
{"compound": "CC(C)N(C(=O)C12C3C4C1C1C2C3C41C(=O)O)C(C)C (stereo unspecified)", "assayed.target": "NCI-H460 lung", "measured": "> 100 µM"}
{"compound": "CC(C)=CC(O)C(C(O)CCC1(C)OCCO1)S(=O)(=O)c1ccccc1 (stereo unspecified)", "assayed.target": "NCI-H460 lung", "measured": "> 100 µM"}
{"compound": "CCN1C(=O)N(C)C(O)c2c1nc1ccccn1c2=O (stereo unspecified)", "assayed.target": "NCI-H460 lung", "measured": "42.8 µM"}

* * *

Tested on: MDA-MB-231 breast
assay.details: NCI tumour cell line growth inhibition, 48 h
Listed here: items and their measured TGI.
measurement.type: TGI (µM)

{"molecule": "COc1cc(C)c2c(c1C=O)Oc1c(c(C)c(O)c3c1C(O)OC3=O)OC2=O (centres undefined)", "assayed.target": "MDA-MB-231 breast", "qualifier.operator": "=", "measured": 68.3}
{"molecule": "Cc1cc(C#N)c[n+](C)c1", "assayed.target": "MDA-MB-231 breast", "qualifier.operator": ">", "measured": 100}
{"molecule": "C=CCn1c(SCC(=O)Nc2ccc(C(=O)/C=C/c3cc(OC)c(OC)c(OC)c3)cc2)nnc1-c1ccc(Cl)cc1", "assayed.target": "MDA-MB-231 breast", "qualifier.operator": ">", "measured": 100}
{"molecule": "O=C(CN=C(CN(c1ccccc1)c1ccccc1)Oc1c(Cl)cc(Cl)cc1Cl)N1c2ccccc2Sc2ccccc21", "assayed.target": "MDA-MB-231 breast", "qualifier.operator": ">", "measured": 100}
{"molecule": "C=C1C(=O)O[C@@H]2O[C@@]3(C)CC[C@H]4[C@H](C)CC[C@@H]1[C@@]24O3", "assayed.target": "MDA-MB-231 breast", "qualifier.operator": "=", "measured": 81.8}
{"molecule": "COc1cc(C(=O)c2c(-c3ccccc3)oc3c(OC)cccc23)cc(OC)c1O", "assayed.target": "MDA-MB-231 breast", "qualifier.operator": "=", "measured": 16.1}
{"molecule": "Cc1ccc(NC(=O)/C(CC2N=c3c(ccc4c(O)c5ccccc5c(O)c34)=NC2O)=N/NC(C)(C)C)cc1 (centres undefined)", "assayed.target": "MDA-MB-231 breast", "qualifier.operator": "=", "measured": 18.8}
{"molecule": "O=C1C=CC(=O)c2c1ccc1c3ccccc3n(CCCCCCCCn3c4ccccc4c4ccc5c(c43)C(=O)C=CC5=O)c21", "assayed.target": "MDA-MB-231 breast", "qualifier.operator": ">", "measured": 100}
{"molecule": "CCN1C(=O)C(=C/C=C/c2ccc(OC)cc2)C(=O)N(CC)C1=S", "assayed.target": "MDA-MB-231 breast", "qualifier.operator": "=", "measured": 37.2}
